measured target: Phosphatidylinositol 4,5-bisphosphate 3-kinase catalytic subunit alpha isoform (Homo sapiens, UniProt P42336, H1047R)
Sequence (P42336 whole entry H1047R, canonical isoform): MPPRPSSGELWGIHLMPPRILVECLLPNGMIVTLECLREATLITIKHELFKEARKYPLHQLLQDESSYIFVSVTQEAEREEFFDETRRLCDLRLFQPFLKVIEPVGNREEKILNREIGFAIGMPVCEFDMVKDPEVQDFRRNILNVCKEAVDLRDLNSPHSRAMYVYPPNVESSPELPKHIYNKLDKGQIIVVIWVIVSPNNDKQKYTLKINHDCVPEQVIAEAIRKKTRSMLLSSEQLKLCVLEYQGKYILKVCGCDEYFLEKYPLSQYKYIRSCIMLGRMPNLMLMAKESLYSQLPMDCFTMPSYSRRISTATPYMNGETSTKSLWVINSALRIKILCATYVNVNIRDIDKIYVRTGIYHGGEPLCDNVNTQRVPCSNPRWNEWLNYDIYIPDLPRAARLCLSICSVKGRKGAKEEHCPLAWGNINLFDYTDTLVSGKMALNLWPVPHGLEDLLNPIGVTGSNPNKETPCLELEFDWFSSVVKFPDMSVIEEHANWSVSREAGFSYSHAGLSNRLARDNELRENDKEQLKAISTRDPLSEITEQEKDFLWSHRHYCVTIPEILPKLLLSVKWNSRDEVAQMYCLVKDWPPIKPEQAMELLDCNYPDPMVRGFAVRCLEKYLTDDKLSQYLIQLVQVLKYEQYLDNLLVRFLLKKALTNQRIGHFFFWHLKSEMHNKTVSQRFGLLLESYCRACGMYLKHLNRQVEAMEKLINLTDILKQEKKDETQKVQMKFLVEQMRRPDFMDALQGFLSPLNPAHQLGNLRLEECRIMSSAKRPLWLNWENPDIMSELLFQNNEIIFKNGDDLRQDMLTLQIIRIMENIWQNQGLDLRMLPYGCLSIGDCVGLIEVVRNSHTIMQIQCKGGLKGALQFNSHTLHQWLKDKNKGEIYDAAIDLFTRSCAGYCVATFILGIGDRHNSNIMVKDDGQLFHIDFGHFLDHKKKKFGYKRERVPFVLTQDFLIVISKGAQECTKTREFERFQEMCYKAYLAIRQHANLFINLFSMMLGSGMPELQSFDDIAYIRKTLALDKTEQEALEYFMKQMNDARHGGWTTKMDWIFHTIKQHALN
run description: Inhibition of PI3Kalpha H1047R mutant (unknown origin)
quantity name: pIC50
# reply with the number alone; pIC50 is -log10 of concentration in mol/L

Consider the worked cases shown below.
test smiles | pIC50
COc1ccc(-c2cc(CNc3ccc(S(=O)(=O)Nc4nnc(C)s4)cc3)cc(C(=O)O)c2)cn1 | 8.07
COc1ccc(-c2cc(CNc3ccc(S(=O)(=O)Nc4nnc(C)s4)cc3)cc(C(=O)NC(CO)CO)c2)cn1 | 7.80
COC(=O)c1cc(I)cc(CNc2ccc(S(=O)(=O)Nc3nnc(C)s3)cc2)c1 | 4.89

We next turn to a different molecule, shown below.
Record COc1ccc(-c2cc(CNc3ccc(S(=O)(=O)Nc4nnc(C)s4)cc3)cc(C(=O)NCCc3ccccc3F)c2)cn1 . Reported pIC50: 7.89
